Tested on: CYP
Assay: Triapine metabolism in human liver microsomes, pH 7.4
Assay type: in vitro ADME
Settings: human, human liver microsomes fortified with NADPH, pH 7.4
Reported endpoint: half-life at 6 μM

Please look up its half-life at 6 μM: NC(=S)NN=Cc1ncccc1N
~3 h

---

Conditions: human, primary human hepatocytes
Reported endpoint: half-life at 6 μM (h)
Answer in h, number only, no unit symbol.

Please look up its half-life at 6 μM: NC(=S)NN=Cc1ncccc1N [Triapine]
8

// data source = paper PMC7906094
